- Organism: Rattus norvegicus
- assay.remarks: DrugMatrix - Regimen: Daily Repeat
- Assay type: toxicity, organism-based, Sprague-Dawley
- Set-up: regimen Daily Repeat, gender Male, age 6-8 weeks
- reported.conditions: in vivo, po, 0 mg/kg, 120 h, tissue Blood, route oral GAVAGE, dose level Control, time 5 day, vehicle .5 % CMC
Below, each entry is listed alongside its reported ABSOLUTE SEGMENTED NEUTROPHIL.
experimental.readout: ABSOLUTE SEGMENTED NEUTROPHIL (CELLS/uL)

- molecule: "ClC(Br)Br"
  assay.value: 1329.83
- molecule: "CCn1cc(C(=O)O)c(=O)c2cc(F)c(N3CCNCC3)cc21"
  assay.value: 1084.33
- molecule: "ClC(Cl)Br"
  assay.value: 1329.83
- molecule: "Cc1ccc(/N=C/N(C)/C=N/c2ccc(C)cc2C)c(C)c1"
  assay.value: 1084.33
- molecule: "COc1nc(C)nc(Cl)c1N=C1NCCN1"
  assay.value: 1321.67
- molecule: "CN1CCN(CCCN2c3ccccc3Sc3ccc(Cl)cc32)CC1"
  assay.value: 980.67
- molecule: "CC(C)(C)NC(=O)[C@@H]1C[C@@H]2CCCC[C@@H]2CN1C[C@@H](O)[C@H](Cc1ccccc1)NC(=O)[C@H](CC(N)=O)NC(=O)c1ccc2ccccc2n1"
  assay.value: 1468.33
- molecule: "CCCN1C[C@H](CSC)C[C@@H]2c3cccc4[nH]cc(c34)C[C@H]21 [PERGOLIDE]"
  assay.value: 1067.17
